test: Toxicity liver stage against HepG2, at 10uM; format: cell-based; set-up: test concentration 10 uM, cell line HepG2-A16-CD81EGFP; conditions: human, HepG2-A16-CD81EGFP cells; read-out: INHIBITION
Reported Endpoint: cytotoxicity at 10 µM (%)
Return type: number; implicit unit %.

Please give the measured cytotoxicity at 10 µM for this compound: COCC1(C(=O)N[C@H]2CN(c3nnc(C)s3)C[C@@H]2C2CC2)CCC1
-129

Requested field: cytotoxicity at 10 µM. Item: Cc1nc2c(c(NCc3nc4ccccc4s3)n1)CCNCC2
-37.8

Which cytotoxicity at 10 µM is listed for Cc1ccc(CNCc2ccc(N3CCC(CO)CC3)nc2)c(C)c1 ?
1.37

Please report the recorded cytotoxicity at 10 µM for Cc1ccc(-c2cn3c(n2)CO[C@@H](CNCc2cnn(C)c2)C3)cc1 .
-1.23

Value lookup for cytotoxicity at 10 µM; key = Cc1nccn1-c1ccc(=O)n(CCNC(=O)c2cccs2)n1
-5.51

Look up cytotoxicity at 10 µM for this compound: O=C(c1cscn1)N1CCc2ncnc(-c3ccncc3)c2CC1
-4.71

Recorded cytotoxicity at 10 µM for CN(Cc1cccs1)c1cc(N2CCCC2CO)ncn1 (stereo not drawn) , please?
1.26

Which measured cytotoxicity at 10 µM value corresponds to COc1c(CNCCC(=O)NC2CCCC2)c(C(C)C)nn1C ?
-4.41

Tell me the measured cytotoxicity at 10 µM of Cc1ccc(CN2CCC3(CC(C(=O)NCC4CC4)=NO3)C2)s1 (stereo not drawn) , please.
5.92

State the recorded cytotoxicity at 10 µM for this entry: CC(C)OCCCNC(=O)CN1CCN(c2nccs2)CC1
3.44

# lookup: cytotoxicity at 10 µM of Cc1noc(CCNC(=O)NCC(=O)NCc2ccccc2)n1
5.24

Which value of cytotoxicity at 10 µM has been reported for COc1cccc(C(O)CNC(=O)CC2CCCCC2)c1 (stereo not drawn) in the records?
-2.11

Recorded cytotoxicity at 10 µM for COCCNC(=O)N1CCSC2(CCCCC2)C1 , please?
2.07

Dear colleague, I am looking for the recorded cytotoxicity at 10 µM of the following compound: Cc1nc(CN(C)C2CCN(CC(=O)NC3CCOCC3)C2)no1 (stereo not drawn)
-7.15

Quick check: cytotoxicity at 10 µM of O=C(NCCCn1ccnc1)c1csc2c1CCCC2 ?
-2.96

Given COc1ccc2c(c1)C(=O)NC1(CC2)CCN(Cc2ccc(F)cc2)C1 (stereo not drawn) , state its recorded cytotoxicity at 10 µM.
8.16

cytotoxicity at 10 µM for Cc1cnc(N2CCC3(CCC(C(=O)NC(C)C)OC3)CC2)nc1 (stereo not drawn) ?
0.903

// returns reported cytotoxicity at 10 µM for input Cc1ccccc1CN1CCCC1c1cccc(Nc2nccs2)n1 (stereo not drawn)
13.3

Entry under review: CCC(C)NC(=O)Cn1c(Nc2cc(C)cc(C)c2)nc(C)cc1=O (stereo not drawn) . Reported cytotoxicity at 10 µM?
9.91

Endpoint output: cytotoxicity at 10 µM of Cc1cc(C)n(CC(=O)N2CCCC(c3cc4cccnc4[nH]3)C2)n1 (stereo not drawn) . Value?
8.3

What does the data say about its cytotoxicity at 10 µM? Entry: COC1CCN(C(=O)c2ccc3ncsc3c2)CC1
-10.3

Entry COc1ccnc(N2CCC(=O)N(CC3CC3)C(C(C)C)C2)n1 (stereo not drawn) : reported cytotoxicity at 10 µM = ?
1.73

For CCN(Cc1c(C)nn(C)c1C)C(=O)C1COc2ccccc2C1 (stereo not drawn) , what is its reported cytotoxicity at 10 µM?
-0.91

Which measured cytotoxicity at 10 µM value corresponds to CNS(=O)(=O)c1ccc(CNC(=O)c2cc(C)no2)cc1 ?
5.12

Entry COCCOCC(=O)NC(C#N)c1cccc(Cl)c1Cl (stereo not drawn) : reported cytotoxicity at 10 µM = ?
7.84

Would you mind telling me what cytotoxicity at 10 µM value was observed for COc1ccc(C2SC(C)=Nc3c2c(=O)[nH]n3C2CCCCC2)cc1O (stereo not drawn) ?
1

Name the reported cytotoxicity at 10 µM value associated with the compound CN(C)CC1(O)CCCN(C(=O)c2cnc(-c3ccccn3)nc2)C1 (stereo not drawn)
-5.53

Please look up its cytotoxicity at 10 µM: CC(=O)N1CC2(CCCN2Cc2ccc(Cl)cc2)Cc2ccccc21 (stereo not drawn)
11.9

Given CC(C)NC(=O)Nc1ccc(CNCc2cccc(C#N)c2)cc1 , state its recorded cytotoxicity at 10 µM.
-7.15

Any idea what cytotoxicity at 10 µM was measured for Cc1cnc(NC(=O)c2csc(NCC(C)C)n2)s1 ?
34.4

What does the record list as cytotoxicity at 10 µM for CCCN(Cc1ccc(C(=O)NCC2COCCO2)c(=O)[nH]1)C1CC1 (stereo not drawn) ?
-15.3

Name the recorded cytotoxicity at 10 µM for O=C(c1ccccc1)N1CCOC2CNCC[C@H]21 (stereo partly drawn) .
-114

I have this compound here, COc1ncccc1CN1C[C@H]2CCN(c3ncccn3)C[C@H]2C1 , and I need its recorded cytotoxicity at 10 µM.
2.66

Entry Cc1ncc(CNC(=O)c2nn(C)c3c2CS(=O)(=O)CC3)s1 : reported cytotoxicity at 10 µM = ?
-2.44

What measured cytotoxicity at 10 µM goes with CN(C)C(=O)C1CN(Cc2cccs2)CCN(S(C)(=O)=O)C1 (stereo not drawn) ?
-33.1

I have this compound here, Cc1ccc(NC2CCN(C(=O)COCC(F)(F)F)CC2)nn1 , and I need its recorded cytotoxicity at 10 µM.
6.38

Dear colleague, I am looking for the recorded cytotoxicity at 10 µM of the following compound: Cc1cc(C)n(C2CCCN(C(=O)c3ccnc(N(C)C)c3)C2)n1 (stereo not drawn)
1.9

Suppose we examine the compound Fc1ccc(CN2CCC3(CC2)CC(c2cccnc2)CO3)cc1 (stereo not drawn) ; what cytotoxicity at 10 µM value has been reported?
-4.85

Bench note: what cytotoxicity at 10 µM did CC(=O)N1CCN(C(=O)CCNc2snc(Cl)c2C#N)CC1 show?
-0.367

Need cytotoxicity at 10 µM, item Cc1ccc(OCC(=O)N(C)Cc2cccc(F)c2)cn1
27.6

I would be grateful if you could share the reported cytotoxicity at 10 µM for Fc1ccccc1Oc1nccnc1C1CCCN(C2CCOCC2)C1 (stereo not drawn) .
-9.4

Entry O=C1CCC(c2ccc(Cl)cc2)=NN1CN1CCCCCC1 : reported cytotoxicity at 10 µM = ?
35.7

Fill blank: measured cytotoxicity at 10 µM of the compound COCC(=O)NC[C@H]1C[C@@H]2CCN1C[C@@H]2CN1CCc2ccccc21 is ____.
3.29

What cytotoxicity at 10 µM value was documented for this compound, O=C(Nc1cccc(Cn2cccn2)c1)N1CCCC(N2CCCC2)C1 (stereo not drawn) ?
4.13

Fill in the blank: the reported cytotoxicity at 10 µM of CCS(=O)(=O)NC(CCSC)C(=O)Nc1ccccc1C (stereo not drawn) is ____.
1.06

Would you mind telling me what cytotoxicity at 10 µM value was observed for COCCCNC(=O)Cc1cc(-c2ccc3c(c2)OCO3)on1 ?
57.7

Which cytotoxicity at 10 µM reading was recorded for the compound CCc1nc(C2CCCN2CC(=O)Nc2c(C)nn(C)c2C)no1 (stereo not drawn) ?
-31.4

Quick one: cytotoxicity at 10 µM for Cc1[nH]ncc1CCCNC(=O)N1CCCC(c2nncn2C)C1 (stereo not drawn) ?
-7.58

====

assay: Toxicity liver stage against HepG2, at 10uM; assay type: cell-based; design: test concentration 10 uM, cell line HepG2-A16-CD81EGFP; details: human, HepG2-A16-CD81EGFP cells; read-out: INHIBITION
Please respond with reported cytotoxicity at 10 µM for every item in the list.
Give a bare numeral; the unit % is implied.

Which value of cytotoxicity at 10 µM has been reported for COc1cccc(CN(C)CC(=O)NC2(C)CCS(=O)(=O)C2)c1 (centres undefined) in the records?
-2.3

Request the reported cytotoxicity at 10 µM associated with CNC(=O)Cn1cc(Nc2cccc(F)c2C#N)cn1
6.64

Entry FC1(F)CCN(Cc2cccnc2)CC12CCN(c1ccccn1)C2 (centres undefined) has what cytotoxicity at 10 µM?
23

Endpoint output: cytotoxicity at 10 µM of COCC1CC2(CCN(C(N)=O)CC2)CN1Cc1csc(C)n1 (centres undefined) . Value?
8.98

I have this compound here, CCN1CCC(NC(=O)CN2CC(n3nc(C)cc3C)C2)CC1 , and I need its recorded cytotoxicity at 10 µM.
-4.44

Entry CC(C)c1nc(C2CCCN(C(=O)CCCn3ccnc3)C2)no1 (centres undefined) has what cytotoxicity at 10 µM?
-17.2

Recorded cytotoxicity at 10 µM of Cc1nc[nH]c1CN1C[C@H]2CC[C@@H](C1)N(C(=O)c1cnn(C)c1)C2 , please.
2.42

Form field: reported cytotoxicity at 10 µM of O=C(O)c1ccc2c(c1)C1(CCCCC1)CN2C(=O)c1cccc(F)c1
2.49

Any idea what its cytotoxicity at 10 µM is? The compound is CCc1nc(CCn2ccnc2-c2nccn2C)no1
-50.2

For the compound shown here, O=C(O)CN1CCC2(CCc3ccccc32)CC1 , give the reported cytotoxicity at 10 µM.
-3.7

Any idea what its cytotoxicity at 10 µM is? The compound is CCc1ccc(CN2CCC3(CC(C(=O)NCC(C)C)=NO3)C2)o1 (centres undefined)
6.46

Any idea what its cytotoxicity at 10 µM is? The compound is CC(c1ccc(F)cc1)n1ccnc1-c1cc2n(n1)CCCNC2 (centres undefined)
2.36

Query: cytotoxicity at 10 µM; subject: Cc1nc(C2CCCNC2)cc(N2CCc3nc(N)sc3C2)n1 (centres undefined)
-47.4

Please give the measured cytotoxicity at 10 µM for this compound: Cc1nn(C)c(Cl)c1C1CCCN1CC(=O)N1CCOCC1 (centres undefined)
3.41

Sample COCCN1CCC(CN(C)c2ncnc3c2c(C)nn3C)C1 (centres undefined) — what was its cytotoxicity at 10 µM?
-5.16

What measured cytotoxicity at 10 µM goes with CNC(=O)[C@@H](c1ccccc1)N1CCC[C@H]1C(=O)NCc1cccnc1 ?
2.38

Request the reported cytotoxicity at 10 µM associated with Cc1ccc(N2C[C@H](C(=O)NCC3CC3)[C@@H]3CCO[C@@H]3C2)nn1
-67.6

Look up cytotoxicity at 10 µM: COc1cccc(C(=O)NCC2CCN(C(=O)c3ccoc3)CC2)c1
15.9

// lookup cytotoxicity at 10 µM for CN(C)C1CCN(C(=O)c2n[nH]c3c2CCN(CC2CCC2)C3)CC1
3.48

cytotoxicity at 10 µM lookup needed for CCC(C)CN1CCC(n2cc(C3CCCCC3)nn2)CC1 (centres undefined) , thanks.
-2.9

Could you tell me which cytotoxicity at 10 µM is on file for COCc1cnc2n1CCN(C1CCC1)C2C (centres undefined) ?
4.77

Would you kindly share the measured cytotoxicity at 10 µM for O=C1COc2cc(C(=O)NS(=O)(=O)c3ccccc3F)ccc2N1 ?
-4.79

Fill in the blank: the reported cytotoxicity at 10 µM of Cc1nnc(NC(=O)NCc2ccc(N3CCN(C)CC3)nc2)s1 is ____.
-7.91

# get_value(readout='cytotoxicity at 10 µM', item= CC(NCc1cccc(Cl)c1)c1ccc(OCC(=O)NC2CC2)cc1 (centres undefined) )
-12.2
